tested target: full-length human PKCι (Homo sapiens)
Construct: Recombinant, full-length human PKCι expressed in Sf21 insect cells is also commercially available; purchased; host or cells: Sf21 insect cells
Sequence (P41743 1-596): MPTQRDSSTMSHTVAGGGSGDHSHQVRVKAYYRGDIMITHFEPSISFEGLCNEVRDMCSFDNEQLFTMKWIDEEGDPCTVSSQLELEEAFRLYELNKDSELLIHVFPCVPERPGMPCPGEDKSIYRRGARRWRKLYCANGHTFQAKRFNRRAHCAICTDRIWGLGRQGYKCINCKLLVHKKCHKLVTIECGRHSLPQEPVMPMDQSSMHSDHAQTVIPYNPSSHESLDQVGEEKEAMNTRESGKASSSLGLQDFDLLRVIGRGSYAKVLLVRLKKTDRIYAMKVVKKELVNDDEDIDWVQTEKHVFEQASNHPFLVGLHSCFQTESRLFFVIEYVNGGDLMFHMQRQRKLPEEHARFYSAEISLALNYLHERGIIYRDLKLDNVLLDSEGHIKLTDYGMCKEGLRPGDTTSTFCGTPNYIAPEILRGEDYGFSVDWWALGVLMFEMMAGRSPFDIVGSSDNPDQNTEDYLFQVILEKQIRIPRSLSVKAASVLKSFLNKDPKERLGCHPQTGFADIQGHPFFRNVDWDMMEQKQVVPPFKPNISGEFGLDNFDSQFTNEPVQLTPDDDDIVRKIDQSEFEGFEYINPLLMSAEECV
test summary: PKCι IC50 IMAP fluorescence polarisation assay, full-length enzyme
Type: biochemical
condition context: full length PKCi at 15 μM ATP; read-out: IC50 in IMAP assay against full length PKCi (Activity)
# IC50 per record follows

The following compounds have reported results that may help.
smiles structure | recorded endpoint | recorded result
CC(=O)N1CCc2c(sc3nc(-c4ccncc4)nc(NCCN)c23)C1 | IC50 | 1 to 10 µM
CC1(C)CCc2c(sc3nc(-c4ccncc4)nc(NCCN)c23)C1 | IC50 | 1 to 10 µM

Now consider a different compound.
N[C@H](CNc1nc(-c2ccncc2)nc2sc3c(c12)CCCC3)Cc1ccc(F)cc1 yielded IC50 of 1 to 10 µM
